Provenance of the data: the supplement of paper PMC11246515

- test_description: total protein half-life in vivo (active degradation + dilution); higher = more stable protein
- condition_summary: E. coli NCM3722 delta-lon; growth: N-lim chemostat; doubling time 6 h
The following sequences are listed with their measured total protein half-life in vivo values.
reported_endpoint: total protein half-life in vivo (h)

| sequence | unit_annotation | value_comparator | value_reported |
| --- | --- | --- | --- |
| MWKRLLIVSAVSAAMSSMALAAPLTVGFSQVGSESGWRAAETNVAKSEAEKRGITLKIADGQQKQENQIKAVRSFVAQGVDAIFIAPVVATGWEPVLKEAKDAEIPVFLLDRSIDVKDKSLYMTTVTADNILEGKLIGDWLVKEVNGKPCNVVELQGTVGASVAIDRKKGFAEAIKNAPNIKIIRSQSGDFTRSKGKEVMESFIKAENNGKNICMVYAHNDDMVIGAIQAIKEAGLKPGKDILTGSIDGVPDIYKAMMDGEANASVELTPNMAGPAFDALEKYKKDGTMPEKLTLTKSTLYLPDTAKEELEKKKNMGY | h | = | 5.93 |
| MSRRAGTPTAKKVTQLVNVEEHVEGFRQVREAHRRELIDDYVELISDLIREVGEARQVDMAARLGVSQPTVAKMLKRLATMGLIEMIPWRGVFLTAEGEKLAQESRERHQIVENFLLVLGVSPEIARRDAEGMEHHVSEETLDAFRLFTQKHGAK [P0A9F1] | h | = | 6 |
| MKRQKRDRLERAHQRGYQAGIAGRSKEMCPYQTLNQRSQWLGGWREAMADRVVMA [P0AFW2] | h | = | 0.441 |
| MNNSAFTFQTLHPDTIMDALFEHGIRVDSGLTPLNSYENRVYQFQDEDRRRFVVKFYRPERWTADQILEEHQFALQLVNDEVPVAAPVAFNGQTLLNHQGFYFAVFPSVGGRQFEADNIDQMEAVGRYLGRMHQTGRKQLFIHRPTIGLNEYLIEPRKLFEDATLIPSGLKAAFLKATDELIAAVTAHWREDFTVLRLHGDCHAGNILWRDGPMFVDLDDARNGPAVQDLWMLLNGDKAEQRMQLETIIEAYEEFSEFDTAEIGLIEPLRAMRLVYYLAWLMRRWADPAFPKNFPWLTGEDYWLRQTATFIEQAKVLQEPPLQLTPMY [P0C0K3] | h | = | 4.43 |
| MMKTMRIAAIPGDGIGKEVLPEGIRVLQAAAERWGFALSFEQMEWASCEYYSHHGKMMPDDWHEQLSRFDAIYFGAVGWPDTVPDHISLWGSLLKFRREFDQYVNLRPVRLFPGVPCPLAGKQPGDIDFYVVRENTEGEYSSLGGRVNEGTEHEVVIQESVFTRRGVDRILRYAFELAQSRPRKTLTSATKSNGLAISMPYWDERVEAMAENYPEIRWDKQHIDILCARFVMQPERFDVVVASNLFGDILSDLGPACTGTIGIAPSANLNPERTFPSLFEPVHGSAPDIYGKNIANPIATIWAGAMMLDFLGNGDERFQQAHNGILAAIEEVIAHGPKTPDMKGNATTPQVADAICKIILR | h | = | 4.83 |
| MSNQFGDTRIDDDLTLLSETLEEVLRSSGDPADQKYVELKARAEKALDDVKKRVSQASDSYYYRAKQAVYRADDYVHEKPWQGIGVGAAVGLVLGLLLARR [P0AEH5] | h | > | 8 |
| MSERLSITPLGPYIGAQISGADLTRPLSDNQFEQLYHAVLRHQVVFLRDQAITPQQQRALAQRFGELHIHPVYPHAEGVDEIIVLDTHNDNPPDNDNWHTDVTFIETPPAGAILAAKELPSTGGDTLWTSGIAAYEALSVPFRQLLSGLRAEHDFRKSFPEYKYRKTEEEHQRWREAVAKNPPLLHPVVRTHPVSGKQALFVNEGFTTRIVDVSEKESEALLSFLFAHITKPEFQVRWRWQPNDIAIWDNRVTQHYANADYLPQRRIMHRATILGDKPFYRAG | h | = | 2.1 |
| MSHLDNGFRSLTLQRFPATDDVNPLQAWEAADEYLLQQLDDTEIRGPVLILNDAFGALSCALAEHKPYSIGDSYISELATRENLRLNGIDESSVKFLDSTADYPQQPGVVLIKVPKTLALLEQQLRALRKVVTSDTRIIAGAKARDIHTSTLELFEKVLGPTTTTLAWKKARLINCTFNEPQLADAPQTVSWKLEGTDWTIHNHANVFSRTGLDIGARFFMQHLPENLEGEIVDLGCGNGVIGLTLLDKNPQAKVVFVDESPMAVASSRLNVETNMPEALDRCEFMINNALSGVEPFRFNAVLCNPPFHQQHALTDNVAWEMFHHARRCLKINGELYIVANRHLDYFHKLKKIFGNCTTIATNNKFVVLKAVKLGRRR | h | = | 5.64 |
| MNKVAQYYRELVASLSERLRNGERDIDALVEQARERVIKTGELTRTEVDELTRAVRRDLEEFAMSYEESLKEESDSVFMRVIKESLWQELADITDKTQLEWREVFQDLNHHGVYHSGEVVGLGNLVCEKCHFHLPIYTPEVLTLCPKCGHDQFQRRPFEP [P0AAT9] | h | = | 5.36 |
| MKLNIRAQTAQNQHNNSPIVLVHGLFGSLDNLGVLARDLVNDHNIIQVDMRNHGLSPRDPVMNYPAMAQDLVDTLDAQQIDKATFIGHSMGGKAVMALTALASDRIDKLVAIDIAPVDYHVRRHDEIFAAINAVSESDAQTRQQAAAIMRQHLNEEGVIQFLLKSFVDGEWRFNVPVLWDQYPHIVGWEKIPAWDHPALFIPGGNSPYVSEQYRDDLLAQFPQARAHVIAGAGHWVHAEKPDAVLRAIRRYLND | h | = | 5.82 |
| MSIRFARKADCAAIAEIYNHAVLYTAAIWNDQTVDADNRIAWFEARTLAGYPVLVSEENGVVTGYASFGDWRSFDGFRHTVEHSVYVHPDHQGKGLGRKLLSRLIDEARDCGKHVMVAGIESQNQASLHLHQSLGFVVTAQMPQVGTKFGRWLDLTFMQLQLDERTEPDAIG | h | = | 5.17 |
| MATNAKPVYKRILLKLSGEALQGTEGFGIDASILDRMAQEIKELVELGIQVGVVIGGGNLFRGAGLAKAGMNRVVGDHMGMLATVMNGLAMRDALHRAYVNARLMSAIPLNGVCDSYSWAEAISLLRNNRVVILSAGTGNPFFTTDSAACLRGIEIEADVVLKATKVDGVFTADPAKDPTATMYEQLTYSEVLEKELKVMDLAAFTLARDHKLPIRVFNMNKPGALRRVVMGEKEGTLITE [P0A7E9] | h | = | 5.16 |
